Catalogue of viability at 10 µM readings, one per entry.
Test system: PANC-1
Assay: Cytotoxicity against human PANC-1 cells assessed as cell viability at 10 uM measured after 48 hrs by WST-1 assay relative to control
Assay type: functional
Conditions: read-out: Activity
Provide only the numeric value, understood in %.

Inquiry: Requested read-out: viability at 10 µM. Entry: OCCN1CCN(CC(O)COc2ccccc2)CC1 (stereo not given)
Reply text: 90

Inquiry: Likewise for COc1ccccc1OCC(O)CN1CCN(CCO)CC1 (stereo not given) ?
Reply text: 100

Inquiry: Likewise for COc1cc([N+](=O)[O-])ccc1OCC(O)CN1CCN(CCO)CC1 (stereo not given) ?
Reply text: 92

Inquiry: Likewise for OCCN1CCN(CC(O)COc2ccc3ccccc3c2)CC1 (stereo not given) ?
Reply text: 101

Inquiry: Likewise for COc1cccc(OC)c1OCC(O)CN1CCN(CCO)CC1 (stereo not given) ?
Reply text: 104

Inquiry: Likewise for C=CCc1ccc(OCC(O)CN2CCN(CCO)CC2)c(OC)c1 (stereo not given) ?
Reply text: 101

Inquiry: Likewise for Cc1ccc(OCC(O)CN2CCN(CCO)CC2)cc1 (stereo not given) ?
Reply text: 102

Inquiry: Likewise for OCCN1CCN(CC(O)COc2cccc3ccccc23)CC1 (stereo not given) ?
Reply text: 102

Inquiry: Likewise for Cc1ccccc1OCC(O)CN1CCN(CCO)CC1 (stereo not given) ?
Reply text: 102

Inquiry: Likewise for Cc1ccc(C(C)C)c(OCC(O)CN2CCN(CCO)CC2)c1 (stereo not given) ?
Reply text: 91
